Parameter: Kd. Scope: all listed entries.
- study_system: T1, human interleukin-23 receptor (IL23R) (human, UniProt Q5VWK5 24-355, limits assumed)
- T1 construct: also called human IL23R
- T1 sequence (looked up): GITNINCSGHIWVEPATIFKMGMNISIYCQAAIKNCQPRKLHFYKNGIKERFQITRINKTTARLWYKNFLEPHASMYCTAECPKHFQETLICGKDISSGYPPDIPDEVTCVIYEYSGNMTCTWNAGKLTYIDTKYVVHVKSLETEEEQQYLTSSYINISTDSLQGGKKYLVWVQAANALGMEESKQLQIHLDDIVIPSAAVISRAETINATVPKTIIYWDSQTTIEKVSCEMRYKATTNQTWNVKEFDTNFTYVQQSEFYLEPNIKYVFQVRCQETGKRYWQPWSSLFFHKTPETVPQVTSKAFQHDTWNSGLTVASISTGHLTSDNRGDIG
- test_description: SPR, scFv (summary table)
measurement_label: Kd (nM)

- Vκ3/VH2 consensus (uncapped), human IL23R specific scFv (scFv, scFv VL-linker-VH, made in E. coli; Vκ framework IV (uncapped, full consensus); also called Vκ3VH2 uncapped) scFv: DIVLTQSPATLSLSPGERATLSCQASENIYSFLAWYQQKPGQAPRLLIYSASKLAAGVPARFSGSGSGTDFTLTISSLEPEDFAVYYCQQTNRYSNPDIYNVFGQGTKVEIKRGGGGSGGGGSGGGGSGGGGSQVQLKESGPALVKPTQTLTLTCTFSGIDFNSNYYMCWIRQPPGKALEWLACIYVGSHVNTYYANWAKGRLTISKDTSKNQVVLTMTNMDPVDTATYYCATSGSSVLYFKFWGQGTLVTVSS: 0.462
- Vκ2/VH5 consensus λ-capped, human IL23R specific scFv (scFv, scFv VL-linker-VH, made in E. coli; also called Vκ2VH5 capped) scFv: DIVMTQSPLSLPVTPGEPASISCQASENIYSFLAWYLQKPGQSPQLLIYSASKLAAGVPDRFSGSGSGTDFTLKISRVEAEDVGVYYCQQTNRYSNPDIYNVFGGGTKLTVLGGGGGSGGGGSGGGGSGGGGSEVQLVQSGAEVKKPGESLKISCKGSGIDFNSNYYMCWVRQMPGKGLEWMGCIYVGSHVNTYYANWAKGQVTISADKSISTAYLQWSSLKASDTAMYYCATSGSSVLYFKFWGQGTLVTVSS: 0.476
- Vκ3/VH6 consensus λ-capped, human IL23R specific scFv (scFv, scFv VL-linker-VH, made in E. coli; also called Vκ3VH6 capped) scFv: DIVLTQSPATLSLSPGERATLSCQASENIYSFLAWYQQKPGQAPRLLIYSASKLAAGVPARFSGSGSGTDFTLTISSLEPEDFAVYYCQQTNRYSNPDIYNVFGGGTKLTVLGGGGGSGGGGSGGGGSGGGGSQVQLQQSGPGLVKPSQTLSLTCAISGIDFNSNYYMCWIRQSPGRGLEWLGCIYVGSHVNTYYANWAKGRITINPDTSKNQFSLQLNSVTPEDTAVYYCATSGSSVLYFKFWGQGTLVTVSS: 0.394
- Vκ2/VH4 consensus (uncapped), human IL23R specific scFv (scFv, scFv VL-linker-VH, made in E. coli; Vκ framework IV (uncapped, full consensus); also called Vκ2VH4 uncapped) scFv: DIVMTQSPLSLPVTPGEPASISCQASENIYSFLAWYLQKPGQSPQLLIYSASKLAAGVPDRFSGSGSGTDFTLKISRVEAEDVGVYYCQQTNRYSNPDIYNVFGQGTKVEIKRGGGGSGGGGSGGGGSGGGGSQVQLQESGPGLVKPSETLSLTCTVSGIDFNSNYYMCWIRQPPGKGLEWIGCIYVGSHVNTYYANWAKGRVTISVDTSKNQFSLKLSSVTAADTAVYYCATSGSSVLYFKFWGQGTLVTVSS: 0.125
- Vκ3/VH2 consensus λ-capped, human IL23R specific scFv (scFv, scFv VL-linker-VH, made in E. coli; also called Vκ3VH2 capped) scFv: DIVLTQSPATLSLSPGERATLSCQASENIYSFLAWYQQKPGQAPRLLIYSASKLAAGVPARFSGSGSGTDFTLTISSLEPEDFAVYYCQQTNRYSNPDIYNVFGGGTKLTVLGGGGGSGGGGSGGGGSGGGGSQVQLKESGPALVKPTQTLTLTCTFSGIDFNSNYYMCWIRQPPGKALEWLACIYVGSHVNTYYANWAKGRLTISKDTSKNQVVLTMTNMDPVDTATYYCATSGSSVLYFKFWGQGTLVTVSS: 0.0916
